The measured values listed here are drawn from patent US20260297080A1.

target: CDK2/Cyclin E1 (Homo sapiens, UniProt P24941); assay: CDK2/Cyclin E1 Biochemical Assay (TR-FRET), 0.060 mM ATP; conditions: 0.15 μM Rb (Ser780)-biotin substrate, pH7.0, 60 min preincubation, 120 min reaction, room temperature
Please assign Criterion not met whenever IC50 is at or above 8 nM, and Criterion met whenever it is below.

>>> group_label("CC(C)NC(=O)O[C@H]1CC[C@@H](c2cc(Nc3ccc4c(c3F)CS(=O)(=O)N4C)n[nH]2)C1 (single isomer, unassigned) [Example 255a]")
"Criterion met"
>>> group_label("CC(C)NC(=O)O[C@H]1CC[C@@H](c2cc(Nc3ccc4c(c3)C(C)S(=O)(=O)N4)n[nH]2)C1 (single isomer, unassigned) [Example 384b]")
"Criterion met"
>>> group_label("CC(C)NC(=O)O[C@H]1CC[C@@H](c2cc(Nc3cc(F)c4c(c3)NS(=O)(=O)C4)n[nH]2)C1 (relative stereo) [Example 311]")
"Criterion met"
>>> group_label("CC1(NC(=O)O[C@H]2C[C@@H](c3cc(Nc4cc5c(cc4F)S(=O)(=O)NC5)n[nH]3)C2)CC1 [Example 411]")
"Criterion not met"
>>> group_label("O=C(O[C@H]1CC[C@@H](c2cc(Nc3ccc4c(c3)CNS4(=O)=O)n[nH]2)C1)N1CCC(O)C1 (relative stereo) [Example 175]")
"Criterion not met"
>>> group_label("CC(C)NC(=O)O[C@H]1CC[C@@H](c2cc(Nc3ccc4c(c3F)S(=O)(=O)CC4)n[nH]2)C1 (relative stereo) [Example 314]")
"Criterion met"
>>> group_label("CC(C)NC(=O)O[C@H]1CC[C@@H](c2cc(Nc3ccc4c(c3F)CN(C3CCCC3)S4(=O)=O)n[nH]2)C1 (relative stereo) [Example 68]")
"Criterion not met"
>>> group_label("CC(C)NC(=O)O[C@H]1CC[C@@H](c2cc(Nc3ccc4c(c3)CN(c3ccc5c(c3)CNS5(=O)=O)S4(=O)=O)n[nH]2)C1 (relative stereo) [Example 18]")
"Criterion not met"
>>> group_label("CC(C)NC(=O)O[C@H]1CC[C@@H](c2cc(Nc3ccc4c(c3F)S(=O)(=O)N(CCO)C4)n[nH]2)C1 (relative stereo) [Example 192]")
"Criterion met"

###

biological target: CDK2/Cyclin E1 (Homo sapiens, UniProt P24941); experiment: CDK2/Cyclin E1 Biochemical Assay (TR-FRET), 0.060 mM ATP; conditions: 0.15 μM Rb (Ser780)-biotin substrate, pH7.0, 60 min preincubation, 120 min reaction, room temperature
Experimental Readout: IC50 (nM)

>>> readout_value("CC(C)NC(=O)O[C@H]1CC[C@@H](c2cc(Nc3ccc4c(c3F)CN(C3CN(Cc5ccccc5)C3)S4(=O)=O)n[nH]2)C1 (relative stereo)")
36
>>> readout_value("CC1(NC(=O)O[C@H]2CC[C@@H](c3cc(Nc4ccc5c(c4F)CS(=O)(=O)N5CCO)n[nH]3)C2)CC1 (relative stereo)")
1
>>> readout_value("COCC(C)NC(=O)O[C@H]1CC[C@@H](c2cc(Nc3ccc4c(c3F)CS(=O)(=O)N4C)n[nH]2)C1 (relative stereo)")
3.9
>>> readout_value("CC(C)NC(=O)O[C@H]1CC[C@@H](c2cc(Nc3ccc4c(c3F)CN(CC3CCCCC3)S4(=O)=O)n[nH]2)C1 (relative stereo)")
37
>>> readout_value("CC[C@H](C)NC(=O)O[C@H]1CC[C@@H](c2cc(Nc3ccc4c(c3F)CNS4(=O)=O)n[nH]2)C1 (single isomer, unassigned) [Example 139a]")
1.2
